Answer each item with its documented EC50.
- TARGET UNDER TEST: soluble guanylate cyclase (sGC) (Homo sapiens (Human), UniProt Q02108+Q02153)
- Sequence (Q02153 whole entry): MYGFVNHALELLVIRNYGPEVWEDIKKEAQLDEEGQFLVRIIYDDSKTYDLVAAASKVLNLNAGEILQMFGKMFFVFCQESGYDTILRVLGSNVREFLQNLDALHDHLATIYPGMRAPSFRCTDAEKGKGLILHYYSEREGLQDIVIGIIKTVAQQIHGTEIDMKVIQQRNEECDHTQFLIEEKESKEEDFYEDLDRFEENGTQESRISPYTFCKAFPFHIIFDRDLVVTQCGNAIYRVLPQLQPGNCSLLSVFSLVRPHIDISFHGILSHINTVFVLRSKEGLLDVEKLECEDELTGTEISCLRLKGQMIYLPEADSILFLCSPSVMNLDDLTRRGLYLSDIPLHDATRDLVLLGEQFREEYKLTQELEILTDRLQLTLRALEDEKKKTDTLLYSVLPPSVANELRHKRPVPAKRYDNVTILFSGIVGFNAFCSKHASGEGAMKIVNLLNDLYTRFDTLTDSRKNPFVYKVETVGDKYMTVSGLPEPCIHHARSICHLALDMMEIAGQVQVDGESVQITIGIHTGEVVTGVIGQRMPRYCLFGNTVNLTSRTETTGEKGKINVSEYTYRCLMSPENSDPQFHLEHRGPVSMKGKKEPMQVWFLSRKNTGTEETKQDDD
- Sequence (Q02108 whole entry): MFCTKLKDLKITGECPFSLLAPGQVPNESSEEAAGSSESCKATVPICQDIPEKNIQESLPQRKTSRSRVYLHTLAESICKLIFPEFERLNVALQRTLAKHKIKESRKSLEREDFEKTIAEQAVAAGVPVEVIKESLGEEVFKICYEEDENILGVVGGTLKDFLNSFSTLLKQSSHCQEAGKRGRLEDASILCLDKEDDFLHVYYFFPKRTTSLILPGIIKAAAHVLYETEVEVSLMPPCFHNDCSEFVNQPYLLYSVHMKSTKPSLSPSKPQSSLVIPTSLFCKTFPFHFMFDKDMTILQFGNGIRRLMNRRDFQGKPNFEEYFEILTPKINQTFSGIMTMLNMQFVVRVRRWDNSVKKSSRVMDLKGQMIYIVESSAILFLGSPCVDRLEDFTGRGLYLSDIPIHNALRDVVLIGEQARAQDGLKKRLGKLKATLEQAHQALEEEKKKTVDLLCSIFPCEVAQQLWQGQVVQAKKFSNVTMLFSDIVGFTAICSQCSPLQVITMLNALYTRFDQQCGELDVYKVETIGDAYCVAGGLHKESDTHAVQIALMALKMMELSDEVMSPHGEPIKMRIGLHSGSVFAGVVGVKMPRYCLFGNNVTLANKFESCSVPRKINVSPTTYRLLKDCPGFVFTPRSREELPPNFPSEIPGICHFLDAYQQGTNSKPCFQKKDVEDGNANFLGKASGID
- PROCEDURE SUMMARY: sGC-HEK-cGMP assay, new protocol with DETA-NONOate, LC/MS detection (Example 2C)
- Assay type: cell-based
- MEASUREMENT SETUP: read-out: Absolute EC50 (uM) - binned

> print(dat)
                                   compound  readout.type    measurement
1  CN(CC(C)(O)C(N)=O)c1nc(-c2cc(-c3ccon3)n(Cc3ccccc3F)n2)ncc1F (stereo not shown)          EC50  0.101 to 1 µM
2  CCN(CC)c1nc(-c2cc(-c3ccon3)n(CCC(F)(F)F)n2)ncc1F          EC50         > 1 µM
3  O[C@@H]1[C@H](O)CN(c2nc(-c3cc(-c4ccon4)n(Cc4ccccc4F)n3)ncc2F)C[C@@H]1O          EC50       < 0.1 µM
4  OC[C@@H]1C[C@@H](O)CN1c1nc(-c2cc(-c3ccon3)n(Cc3ccccc3F)n2)ncc1F          EC50       < 0.1 µM
5  CC(=O)O[C@@H](C(=O)Nc1ccnc(-c2cc(-c3ccon3)n(Cc3ccccc3F)n2)n1)C(F)(F)F          EC50  0.101 to 1 µM

Each compound below has a reported value. Please supply its EC50.
1. O=C(Nc1nc(-c2cc(-c3ccon3)n(Cc3ccccc3F)n2)ncc1F)C(F)(F)F
2. O=S(=O)(CCC(F)(F)F)Nc1nc(-c2cc(-c3ccon3)n(Cc3ccccc3F)n2)ncc1F

A)
0.101 to 1 µM
0.101 to 1 µM

----------
Please go through the items and note down their EC50.
- TARGET UNDER TEST: soluble guanylate cyclase (sGC) (Homo sapiens (Human), UniProt Q02108+Q02153)
- PROCEDURE SUMMARY: sGC-HEK-cGMP assay, new protocol with DETA-NONOate, LC/MS detection (Example 2C)
- Type: cell-based
- MEASUREMENT SETUP: read-out: Absolute EC50 (uM) - binned

Answered cases to consult:
> print(dat)
                                   compound                         target.under.test  readout.type    measurement
1  N#CCC(=O)Nc1ccnc(-c2cc(-c3ccon3)n(Cc3ccccc3F)n2)n1  soluble guanylate cyclase (sGC) (Homo sapiens (Human), UniProt Q02108+Q02153)          EC50         > 1 µM
2  NC(=O)C(O)CNc1nc(-c2cc(-c3ccon3)n(Cc3ccccc3F)n2)ncc1F (stereo not drawn)  soluble guanylate cyclase (sGC) (Homo sapiens (Human), UniProt Q02108+Q02153)          EC50  0.101 to 1 µM
3  O=C(O)c1ccc(CNc2nc(-c3cc(-c4ccon4)n(Cc4ccccc4F)n3)ncc2F)s1  soluble guanylate cyclase (sGC) (Homo sapiens (Human), UniProt Q02108+Q02153)          EC50  0.101 to 1 µM
4  CC(C)(C)OC(=O)N1CC(O)(CNc2nc(-c3cc(-c4ccon4)n(Cc4ccccc4F)n3)ncc2F)C1  soluble guanylate cyclase (sGC) (Homo sapiens (Human), UniProt Q02108+Q02153)          EC50       < 0.1 µM
5  CN(CC1(C(=O)O)CC1)c1nc(-c2cc(C(N)=O)n(Cc3ccccc3F)n2)ncc1F  soluble guanylate cyclase (sGC) (Homo sapiens (Human), UniProt Q02108+Q02153)          EC50         > 1 µM

Return reported EC50 values for all items listed beneath this line.
1. OC(CNc1nc(-c2cc(-c3ccon3)n(CCC(F)(F)F)n2)ncc1F)(C(F)(F)F)C(F)(F)F
2. CO[C@H](C(=O)Nc1ccnc(-c2cc(-c3ccon3)n(Cc3ccccc3F)n2)n1)c1ccccc1
3. O=C1OC(C(F)(F)F)CN1c1ccnc(-c2cc(-c3ccon3)n(Cc3ccccc3F)n2)n1 (stereo not drawn)
4. CC1(C)CCC(=O)N1c1nc(-c2cc(-c3ccon3)n(Cc3ccccc3F)n2)ncc1F
5. COC(C(=O)Nc1ccnc(-c2cc(-c3ccon3)n(Cc3ccccc3F)n2)n1)(c1ccccc1)C(F)(F)F (stereo not drawn)

A)
1: > 1 µM; 2: 0.101 to 1 µM; 3: > 1 µM; 4: > 1 µM; 5: > 1 µM

----------
- TARGET UNDER TEST: soluble guanylate cyclase (sGC) (Homo sapiens (Human), UniProt Q02108+Q02153)
- PROCEDURE SUMMARY: sGC-HEK-cGMP assay, new protocol with DETA-NONOate, LC/MS detection (Example 2C)
- Format: cell-based
- MEASUREMENT SETUP: read-out: Absolute EC50 (uM) - binned
What EC50 was measured for each of the following?

> print(dat)
                                   molecule  measurement
1  O=C(Nc1ccnc(-c2cc(-c3ccon3)n(Cc3ccccc3F)n2)n1)c1ccco1 [Compound I-560]       > 1 µM

For every listed record, write down its EC50.
1. OC1(C(F)(F)F)CN(c2nc(-c3cc(-c4ccon4)n(Cc4ccccc4F)n3)ncc2F)C1 [Compound I-396]
2. COC(=O)NCC(Nc1nc(-c2cc(-c3ccon3)n(Cc3ccccc3F)n2)ncc1F)C(F)(F)F (stereo not drawn) [Compound I-568]
3. OCC(O)(CNc1nc(-c2cc(-c3ccon3)n(Cc3ccccc3F)n2)ncc1F)C(F)(F)F (stereo not drawn) [Compound I-355]
4. O=C(CC(O)(C(F)(F)F)C(F)(F)F)Nc1ccnc(-c2cc(-c3ccon3)n(Cc3ccccc3F)n2)n1 [Compound I-490]

A)
< 0.1 µM
< 0.1 µM
< 0.1 µM
0.101 to 1 µM

Hello, I would appreciate it if you could give EC50 for each entry below.
1. NC(=O)NCC(=O)Nc1ccnc(-c2cc(-c3ccon3)n(Cc3ccccc3F)n2)n1 [Compound I-584]
2. O=C(CN1C(=O)c2ccccc2C1=O)NCC(=O)Nc1ccnc(-c2cc(-c3ccon3)n(Cc3ccccc3F)n2)n1 [Compound I-602]
3. Oc1n[nH]c2c1CCN(c1nc(-c3cc(-c4ccon4)n(Cc4ccccc4F)n3)ncc1F)C2 [Compound I-370]
4. CC(C)[C@H](CN(C)c1nc(-c2cc(-c3ccon3)n(Cc3ccccc3F)n2)ncc1F)NS(=O)(=O)C1CC1 [Compound I-344]
5. O=C(Nc1ccnc(-c2cc(-c3ccon3)n(Cc3ccccc3F)n2)n1)C1CCOCC1 [Compound I-574]
6. OCCCNc1nc(-c2cc(-c3ccon3)n(Cc3ccccc3F)n2)ncc1F [Compound I-408]
7. CCOC(=O)C1(C)C(=O)Nc2nc(-c3cc(-c4ccon4)n(Cc4ccccc4F)n3)nc(N)c21 (stereo not drawn) [Compound I-420]

A)
["> 1 µM", "> 1 µM", "< 0.1 µM", "< 0.1 µM", "0.101 to 1 µM", "< 0.1 µM", "< 0.1 µM"]

Here are 3 molecules. What values of EC50 were reported for them?
1. OC1(CNc2nc(-c3cc(-c4ccon4)n(Cc4ccccc4F)n3)ncc2F)CCOCC1 [Compound I-397]
2. O=C(Nc1ccnc(-c2cc(-c3ccon3)n(Cc3ccccc3F)n2)n1)c1ccncn1 [Compound I-555]
3. NC(=O)C(O)(CNc1nc(-c2cc(-c3ccon3)n(Cc3cccc(F)c3F)n2)ncc1F)C(F)(F)F (stereo not drawn) [Compound I-522]

A)
< 0.1 µM
> 1 µM
< 0.1 µM

----------
- TARGET UNDER TEST: soluble guanylate cyclase (sGC) (Homo sapiens (Human), UniProt Q02108+Q02153)
- PROCEDURE SUMMARY: sGC-HEK-cGMP assay, new protocol with DETA-NONOate, LC/MS detection (Example 2C)
- Format: cell-based
- MEASUREMENT SETUP: read-out: Absolute EC50 (uM) - binned
Provide the reported EC50 of each item.

Please state EC50 for every compound in the list that follows.
1. CC1(S(C)(=O)=O)CCN(c2nc(-c3cc(-c4ccon4)n(Cc4ccccc4F)n3)ncc2F)C1=O (stereo not drawn)
2. CS(=O)(=O)CC(=O)Nc1ccnc(-c2cc(-c3ccon3)n(Cc3ccccc3F)n2)n1
3. O=C(O)C(Nc1nc(-c2cc(-c3ccon3)n(Cc3ccccc3F)n2)ncc1F)C(F)(F)F (stereo not drawn)

A)
> 1 µM
> 1 µM
0.101 to 1 µM

Need EC50 for each of these compounds.
1. CS(=O)(=O)C1(CNc2nc(-c3cc(-c4ccon4)n(Cc4ccccc4F)n3)ncc2F)CC1
2. O=C(Nc1ccnc(-c2cc(-c3ccon3)n(Cc3ccccc3F)n2)n1)c1cc(C2CC2)n[nH]1
3. O=C(Nc1nc(-c2cc(-c3ccon3)n(Cc3ccccc3F)n2)ncc1N1CCOCC1)C(O)(C(F)(F)F)C(F)(F)F

A)
1: < 0.1 µM; 2: > 1 µM; 3: 0.101 to 1 µM

Each compound below has a recorded value; state its EC50.
1. O=C1O[C@@H](CO)CN1c1nc(-c2cc(-c3ccon3)n(Cc3ccccc3F)n2)ncc1F
2. N#CC1(C(=O)Nc2ccnc(-c3cc(-c4ccon4)n(Cc4ccccc4F)n3)n2)CC1
3. O=C(O)C(CC(F)F)Nc1nc(-c2cc(-c3ccon3)n(Cc3ccccc3F)n2)ncc1F (stereo not drawn)
4. O=S(=O)(CCO)Nc1ccnc(-c2cc(-c3ccon3)n(Cc3ccccc3F)n2)n1
5. NC(=O)[C@H](CO)Nc1nc(-c2cc(-c3ccon3)n(Cc3ccccc3F)n2)ncc1F

A)
1: < 0.1 µM; 2: > 1 µM; 3: > 1 µM; 4: > 1 µM; 5: 0.101 to 1 µM
